target of assay: STAT3 protein (Homo sapiens, UniProt P40763)
Construct: human STAT3 protein (residues 122-722) fused to His-tag; His-tag
Sequence (P40763 122-722): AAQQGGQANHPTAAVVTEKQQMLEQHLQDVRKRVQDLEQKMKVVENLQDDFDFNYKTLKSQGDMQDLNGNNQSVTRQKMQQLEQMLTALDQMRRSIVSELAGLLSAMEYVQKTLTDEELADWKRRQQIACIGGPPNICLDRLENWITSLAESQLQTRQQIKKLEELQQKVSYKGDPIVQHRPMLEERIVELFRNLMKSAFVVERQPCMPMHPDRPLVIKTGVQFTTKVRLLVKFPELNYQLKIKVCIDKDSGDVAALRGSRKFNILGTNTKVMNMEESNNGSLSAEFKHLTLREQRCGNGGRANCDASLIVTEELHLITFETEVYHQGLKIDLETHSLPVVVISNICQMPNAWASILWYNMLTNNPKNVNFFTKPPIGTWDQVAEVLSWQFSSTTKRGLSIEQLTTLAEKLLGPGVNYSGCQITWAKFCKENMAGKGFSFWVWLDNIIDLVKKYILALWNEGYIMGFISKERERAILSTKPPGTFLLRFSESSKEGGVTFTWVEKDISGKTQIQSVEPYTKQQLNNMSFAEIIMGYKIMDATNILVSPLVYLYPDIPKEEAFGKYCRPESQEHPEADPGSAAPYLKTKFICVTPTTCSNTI
test method notes: In vitro competitive STAT3 binding assay (fluorescence polarization)
pIC50: −log10 of the molar value.
property name: pIC50

Tell me the measured pIC50 of CCCCCCCCCCCCCCCC(=O)N[C@H](Cc1ccc(OCP(=O)(O)O)cc1)C(=O)N[C@H]1CCCCC2CC[C@@H](C(=O)N[C@@H](CCC(N)=O)C(=O)NCc3ccccc3)N2C1=O (some centres unmarked) , please.
> 5.30

Quick one: CC(=O)N[C@@H](Cc1ccc(OCP(=O)(O)O)cc1)C(=O)NC1CCCC[C@H]2CC[C@@H](C(=O)N[C@@H](Cc3c[nH]cn3)C(=O)NCc3ccccc3)N2C1=O (stereo in doubt) [Example 32]
> 4.52

Field entry: CCCCCCCCCCCCCCCC(=O)N[C@@H](Cc1ccc(OP(=O)(O)O)cc1)C(=O)NC1CCCC[C@H]2CC[C@@H](C(=O)N[C@@H](Cc3c[nH]cn3)C(=O)NCc3ccccc3)N2C1=O (some centres unmarked) [Example 38]
> 4.00

Next record, please: CCCCCCCCCCCCCCCCNC(=O)C(CCC(N)=O)NC(=O)[C@@H]1CCC2CCCC[C@H](NC(=O)c3cc4cc(C(F)(F)P(=O)(O)O)ccc4[nH]3)C(=O)N21 (some centres unmarked) [Example 66]
> 6.00

Continue with NC(=O)CC[C@H](NC(=O)[C@@H]1CCC2CCCC[C@H](NC(=O)c3cc4cc(OP(=O)(O)O)ccc4[nH]3)C(=O)N21)C(=O)NCc1ccccc1 (some centres unmarked) [Example 57]
> 6.00

Follow-up entry: C[C@H](NC(=O)[C@@H]1CC[C@@H]2CCCC[C@H](NC(=O)[C@H](Cc3ccc(OP(=O)(O)O)cc3)NC(=O)OCc3ccccc3)C(=O)N21)C(=O)NCc1ccccc1 [Example 8]
< 4.70

Please give the result for CC[C@H](NC(=O)[C@@H]1CCC2CCCC[C@H](NC(=O)[C@H](Cc3ccc(OP(=O)(O)O)cc3)NC(=O)OCc3ccccc3)C(=O)N21)C(=O)NCc1ccccc1 (some centres unmarked) too.
< 5.00

What would you report for NC(=O)CC[C@H](NC(=O)[C@@H]1CCC2CCCC[C@H](NC(=O)c3cc4cc(C(F)(F)P(=O)(O)O)ccc4[nH]3)C(=O)N21)C(=O)NCc1ccccc1 (some centres unmarked) [Example 59] ?
> 6.00

Item: CC(=O)N[C@@H](Cc1ccc(CP(=O)(O)O)cc1)C(=O)N[C@H]1CCCC[C@H]2CC[C@@H](C(=O)N[C@@H](CCC(N)=O)C(=O)NCc3ccccc3)N2C1=O [Example 30]
> 4.52

Proceed to NC(=O)CC[C@H](NC(=O)[C@@H]1CC[C@@H]2CCCC[C@H](NC(=O)[C@@H](N)Cc3ccc(CP(=O)(O)O)cc3)C(=O)N21)C(=O)NCc1ccccc1 [Example 29]
> 4.52

Now consider NC(=O)CC[C@H](NC(=O)[C@@H]1CCC2CCCC[C@H](NC(=O)[C@@H](N)Cc3ccc(OP(=O)(O)O)cc3)C(=O)N21)C(=O)NCc1ccccc1 (some centres unmarked) and answer again.
> 6.00

Next up: CNC(=O)[C@H](CCC(N)=O)NC(=O)[C@@H]1CC[C@@H]2CCCC[C@H](NC(=O)[C@H](Cc3ccc(OP(=O)(O)O)cc3)NC(=O)OCc3ccccc3)C(=O)N21 [Example 13]
> 6.00

Also need O=C(N[C@@H](Cc1ccc(OP(=O)(O)O)cc1)C(=O)N[C@H]1CCCC[C@H]2CC[C@@H](C(=O)N[C@@H](Cc3c[nH]cn3)C(=O)NCc3ccccc3)N2C1=O)OCc1ccccc1 [Example 22] , thanks.
> 5.00

How about this compound: CCCCCCCCCCCCCCCC(=O)N[C@@H](Cc1ccc(OP(=O)(O)O)cc1)C(=O)NC1CCCC[C@H]2CC[C@@H](C(=O)N[C@@H](CCC(N)=O)C(=O)NCc3ccccc3)N2C1=O (some centres unmarked) [Example 37]
> 5.00

Follow-up entry: CCCCCCCCCCCCCCCCNC(=O)[C@H](CCC(N)=O)NC(=O)[C@@H]1CC[C@@H]2CCCC[C@H](NC(=O)[C@H](Cc3ccc(OP(=O)(O)O)cc3)NC(=O)CCN3CCN(C)CC3)C(=O)N21
> 5.30

// query: NC(=O)CC[C@H](NC(=O)[C@@H]1CCC2CCCC[C@H](NC(=O)[C@H](Cc3ccc(OP(=O)(O)O)cc3)NC(=O)CCOCCOCCOCCOCCNC(=O)CCCCC3SCC4NC(=O)NC43)C(=O)N21)C(=O)NCc1ccccc1 (some centres unmarked)
> 6.00

Please answer likewise for NC(=O)CC[C@H](NC(=O)[C@@H]1CCC2CCCC[C@H](NC(=O)CCc3ccc(OP(=O)(O)O)cc3)C(=O)N21)C(=O)NCc1ccccc1 (some centres unmarked)
> 5.30

Continue with CC(=O)N[C@@H](Cc1ccc(CP(=O)(O)O)cc1)C(=O)N[C@H]1CCCC[C@H]2CC[C@@H](C(=O)N[C@@H](Cc3c[nH]cn3)C(=O)NCc3ccccc3)N2C1=O [Example 27]
< 5.00

// repeat for CCCCCCCCCCCCCCCCNC(=O)[C@H](CCC(N)=O)NC(=O)[C@@H]1CC[C@@H]2CCCC[C@H](NC(=O)[C@H](Cc3ccc(OP(=O)(O)O)cc3)NC(=O)CCN3CCOCC3)C(=O)N21 and report
> 5.30

Please answer likewise for N=C(N)NCCC[C@H](NC(=O)[C@@H]1CC[C@@H]2CCCC[C@H](NC(=O)[C@H](Cc3ccc(OP(=O)(O)O)cc3)NC(=O)OCc3ccccc3)C(=O)N21)C(=O)NCc1ccccc1 [Example 11]
< 5.30
